Reference source: the RepoRT retention time repository (doi:10.1021/acs.jafc.0c00879)

Hi there, I'd appreciate the recorded LC retention time for every entry that follows.
# assay-text: RP, Waters ACQUITY UPLC HSS T3, 150 × 2.1 mm, 1.8 µm, 40 °C, 0.28 mL/min, estimated dead time 1.2 min; A: water + 0.1% formic acid; B: methanol + 0.1% formic acid; gradient (min/%B) 0/0 1/0 3/10 18/40 21/100 25.5/100
# protocol-conditions: stereoisomer not certain
Answers are plain numbers, in min.

- compound: "O=C(C=Cc1ccc(O)cc1)OCC1OC(Oc2cc3c(O)cc(O)cc3[o+]c2-c2cc(O)c(O)c(O)c2)C(O)C(O)C1O (centres undefined)"
  LC retention time, min: 20

Please supply LC retention time for each of the following items, keeping them in order.
1. NC(CCC(=O)NC(CS)C(=O)NCC(=O)O)C(=O)O (centres undefined)
2. COc1cc(-c2[o+]c3cc(O)cc(O)c3cc2OC2OC(COC(=O)C=Cc3ccc(O)cc3)C(O)C(O)C2O)ccc1O (centres undefined)

Response:
2.46
20.4

Request: Any idea what LC retention time was measured for COc1cc(-c2oc3cc(O)cc(O)c3c(=O)c2OC2OC(CO)C(O)C(O)C2O)cc(O)c1O (centres undefined) ?
Response: 19.6

###

# assay-text: RP, Waters ACQUITY UPLC HSS T3, 150 × 2.1 mm, 1.8 µm, 40 °C, 0.28 mL/min, estimated dead time 1.2 min; A: water + 0.1% formic acid; B: methanol + 0.1% formic acid; gradient (min/%B) 0/0 1/0 3/10 18/40 21/100 25.5/100
# protocol-conditions: stereoisomer not certain
Hi there, I'd appreciate the recorded LC retention time for every entry that follows.
Give bare numbers, in min.

- compound: "O=C(OC1Cc2c(O)cc(O)cc2OC1c1cc(O)c(O)c(O)c1)c1cc(O)c(O)c(O)c1 (stereo not given)"
  endpoint: "LC retention time"
  unit-annotation: "min"
  numeric-result: 15.2

Please supply LC retention time for each of the following items, keeping them in order.
1. COc1cc(-c2oc3cc(=[OH+])cc4occc(c2OC2OC(CO)C(O)C(O)C2O)c43)cc(OC)c1O (stereo not given)
2. CCOC(=O)c1cc(O)c(O)c(O)c1
3. O=C1c2c(O)cc(O)cc2OC(c2ccc(O)cc2)C1O (stereo not given)
4. CC(C=CC1(O)C(C)=CC(=O)CC1(C)C)=CC(=O)O (stereo not given)

Response:
1: 17.7; 2: 14.2; 3: 18.6; 4: 20.6

###

# assay-text: RP, Waters ACQUITY UPLC HSS T3, 150 × 2.1 mm, 1.8 µm, 40 °C, 0.28 mL/min, estimated dead time 1.2 min; A: water + 0.1% formic acid; B: methanol + 0.1% formic acid; gradient (min/%B) 0/0 1/0 3/10 18/40 21/100 25.5/100
# protocol-conditions: stereoisomer not certain
Note to self: class = bucket of LC retention time, per category 1 = under 10 min, category 2 = from 10 min up to 20 min, category 3 = 20 min and over

Solved cases below.
- compound: "CC(C)C(N)C(=O)O (stereo not given)"
  cat: "category 1"
- compound: "O=C(OC1Cc2c(O)cc(O)cc2OC1c1ccc(O)c(O)c1)c1cc(O)c(O)c(O)c1 (stereo not given)"
  cat: "category 2"
- compound: "NC(Cc1ccccc1)C(=O)O (stereo not given)"
  cat: "category 1"
- compound: "COc1cc(-c2[o+]c3cc(O)cc(O)c3cc2OC2OC(CO)C(O)C(O)C2O)ccc1O (stereo not given)"
  cat: "category 2"
- compound: "COc1cc(-c2oc3cc(O)cc(O)c3c(=O)c2O)cc(O)c1O"
  cat: "category 3"

Switching to the query record.
Request: Could you place Cc1cc2nc3c(=O)[nH]c(=O)nc-3n(CC(O)C(O)C(O)CO)c2cc1C (stereo not given) in its proper category? Many thanks.
Response: category 2

###

# assay-text: RP, Waters ACQUITY UPLC HSS T3, 150 × 2.1 mm, 1.8 µm, 40 °C, 0.28 mL/min, estimated dead time 1.2 min; A: water + 0.1% formic acid; B: methanol + 0.1% formic acid; gradient (min/%B) 0/0 1/0 3/10 18/40 21/100 25.5/100
# protocol-conditions: stereoisomer not certain
endpoint: LC retention time
Give the value; after it, write the unit.

- compound: "O=c1c(OC2OC(CO)C(O)C(O)C2O)c(-c2ccc(O)cc2)oc2cc(O)cc(O)c12 (centres undefined)"
  LC retention time: "20.2 min"
- compound: "COc1cc(-c2[o+]c3cc(O)cc(O)c3cc2OC2OC(COC(=O)C=Cc3ccc(O)cc3)C(O)C(O)C2O)cc(O)c1O (centres undefined)"
  LC retention time: "20.2 min"

Please supply LC retention time for each of the following items, keeping them in order.
1. NC(Cc1ccc(O)cc1)C(=O)O (centres undefined)
2. O=C1c2c(O)cc(O)cc2OC(c2ccc(O)c(OC3OC(C(=O)O)C(O)C(O)C3O)c2)C1O (centres undefined)

Response:
["4.05 min", "19 min"]

###

# assay-text: RP, Waters ACQUITY UPLC HSS T3, 150 × 2.1 mm, 1.8 µm, 40 °C, 0.28 mL/min, estimated dead time 1.2 min; A: water + 0.1% formic acid; B: methanol + 0.1% formic acid; gradient (min/%B) 0/0 1/0 3/10 18/40 21/100 25.5/100
# protocol-conditions: stereoisomer not certain
Please enter true where LC retention time is greater than or equal to 20 min, and false where it is lower.

Solved cases below.
- compound: "O=C(O)C1CCCN1 (centres undefined)"
  cat: "false"
- compound: "O=c1[nH]c(=O)c2[nH]cnc2[nH]1"
  cat: "false"
- compound: "COc1cc(-c2oc3cc(O)cc(O)c3c(=O)c2O)ccc1O"
  cat: "true"

Request: Hi, just wondering whether COc1cc(-c2oc3cc(O)cc(O)c3c(=O)c2O)cc(OC)c1O shows LC retention time of 20 min or higher.
Response: true

Request: Hi, just wondering whether O=C(C=Cc1ccc(O)c(O)c1)OC(C(=O)O)C(O)C(=O)O (centres undefined) shows LC retention time of 20 min or higher.
Response: false

Request: Hi, just wondering whether O=C(O)c1cc(O)c(O)c(O)c1 shows LC retention time of 20 min or higher.
Response: false

Request: Hi, just wondering whether O=c1c(OC2OC(CO)C(O)C(O)C2O)c(-c2cc(O)c(O)c(O)c2)oc2cc(O)cc(O)c12 (centres undefined) shows LC retention time of 20 min or higher.
Response: false

Request: Hi, just wondering whether COc1cc(-c2[o+]c3cc(O)cc(O)c3cc2OC2OC(CO)C(O)C(O)C2O)cc(O)c1O (centres undefined) shows LC retention time of 20 min or higher.
Response: false

Request: Hi, just wondering whether CCOC(=O)C=Cc1ccc(O)c(O)c1 shows LC retention time of 20 min or higher.
Response: true

Request: Hi, just wondering whether CC(C)(CO)C(O)C(=O)NCCC(=O)O (centres undefined) shows LC retention time of 20 min or higher.
Response: false

Request: Hi, just wondering whether O=c1c(O)c(-c2ccc(O)c(O)c2)oc2cc(O)cc(O)c12 shows LC retention time of 20 min or higher.
Response: true

Request: Hi, just wondering whether COc1cc(-c2[o+]c3cc(O)cc(O)c3cc2OC2OC(COC(C)=O)C(O)C(O)C2O)cc(O)c1O (centres undefined) shows LC retention time of 20 min or higher.
Response: false

Request: Hi, just wondering whether COc1cc(C=CC(=O)OC(C(=O)O)C(O)C(=O)O)ccc1O (centres undefined) shows LC retention time of 20 min or higher.
Response: false

Request: Hi, just wondering whether NC(Cc1c[nH]c2ccccc12)C(=O)O (centres undefined) shows LC retention time of 20 min or higher.
Response: false

Request: Hi, just wondering whether COc1cc(-c2oc3cc(=O)cc4oc(O)c(C=[OH+])c(c2OC2OC(CO)C(O)C(O)C2O)c43)cc(OC)c1O (centres undefined) shows LC retention time of 20 min or higher.
Response: false

Request: Hi, just wondering whether CC(=O)OCC1OC(Oc2cc3c(O)cc(O)cc3[o+]c2-c2cc(O)c(O)c(O)c2)C(O)C(O)C1O (centres undefined) shows LC retention time of 20 min or higher.
Response: false

Request: Hi, just wondering whether O=C(O)C(O)Cc1c[nH]c2ccccc12 (centres undefined) shows LC retention time of 20 min or higher.
Response: false

Request: Hi, just wondering whether O=S(=O)(O)c1[nH]c2ccccc2c1CCO shows LC retention time of 20 min or higher.
Response: false

Request: Hi, just wondering whether CC(=O)OCC1OC(Oc2cc3c(O)cc(O)cc3[o+]c2-c2ccc(O)c(O)c2)C(O)C(O)C1O (centres undefined) shows LC retention time of 20 min or higher.
Response: false

Request: Hi, just wondering whether OCC1OC(Oc2cc3c(O)cc(O)cc3[o+]c2-c2cc(O)c(O)c(O)c2)C(O)C(O)C1O (centres undefined) shows LC retention time of 20 min or higher.
Response: false

Request: Hi, just wondering whether O=c1c(O)c(-c2ccc(O)cc2)oc2cc(O)cc(O)c12 shows LC retention time of 20 min or higher.
Response: true

Request: Hi, just wondering whether Oc1cc(O)c2c(c1)OC1(c3ccc(O)c(O)c3)Oc3cc(O)c4c(c3C2C1O)OC(c1ccc(O)c(O)c1)C(O)C4 (centres undefined) shows LC retention time of 20 min or higher.
Response: false

Request: Hi, just wondering whether CC(C)CC(N)C(=O)O (centres undefined) shows LC retention time of 20 min or higher.
Response: false

Request: Hi, just wondering whether O=C(O)C1OC(Oc2c(-c3cc(O)c(O)c(O)c3)oc3cc(O)cc(O)c3c2=O)C(O)C(O)C1O (centres undefined) shows LC retention time of 20 min or higher.
Response: false

Request: Hi, just wondering whether COc1cc(-c2[o+]c3cc(O)cc(O)c3cc2OC2OC(CO)C(O)C(O)C2O)cc(OC)c1O (centres undefined) shows LC retention time of 20 min or higher.
Response: false
